# System: A549 (lung adenocarcinoma)
# measurement_protocol: Antiproliferative activity (CCK-8 cell viability), A549
# Format: cell-based
# condition_set: Homo sapiens, Compound concentration: 10 μM, 72 h, read-out: Antiproliferative activity in cancerous cells, A549 (inhibition of cell growth)
Below: a set of entries, each annotated with reported inhibition at 10 µM.

Solved cases below.
INSERT INTO results (compound, experimental_endpoint, assay_result) VALUES
  ('CCc1ccc2c(c1)C(CC(=O)O)=C(C)/C2=C/c1cccc(COc2ccccc2)c1', 'inhibition at 10 µM', '≥ 50%'),
  ('CCc1ccc(COCc2ccc(/C=C3/C(C)=C(CC(=O)O)c4cc(F)ccc43)cc2)cc1', 'inhibition at 10 µM', '≥ 50%');

Prompt: Param item = `CC1=C(CC(=O)O)c2c(F)ccc(F)c2/C1=C/c1ccc(C(F)(F)F)cc1` ; retrieve measured inhibition at 10 µM.
Completion: < 30%

Prompt: Request: COc1ccc(Oc2ccc(/C=C3\C(C)=C(CC(=O)O)c4cc(F)ccc43)cn2)cc1 [E1]
Completion: 30 to 50%

Prompt: Request: `CCc1ccc(/C=C2/C(Cc3ccc(Oc4ccc(F)cc4)cc3)=C(CC(=O)O)c3cc(F)ccc32)cc1`
Completion: ≥ 50%

Prompt: Request: `COc1ccc2c(c1)C(CC(=O)O)=C(C)/C2=C/c1ccc(Oc2ccc(F)c(F)c2)cc1`
Completion: ≥ 50%

Prompt: Request: `CC1=C(CC(=O)O)c2cc(F)ccc2/C1=C\c1cccc(C(=O)c2ccccc2)c1`
Completion: ≥ 50%

Prompt: Request: `COc1ccc(CCCc2ccc(/C=C3/C(C)=C(CC(=O)O)c4cc(F)ccc43)cc2)cc1`
Completion: ≥ 50%

====

# System: A549 (lung adenocarcinoma)
# measurement_protocol: Antiproliferative activity (CCK-8 cell viability), A549
# Assay type: cell-based
# condition_set: Homo sapiens, Compound concentration: 10 μM, 72 h, read-out: Antiproliferative activity in cancerous cells, A549 (inhibition of cell growth)
experimental_endpoint: inhibition at 10 µM

INSERT INTO measurements (compound, assay_result) VALUES
  ('CC1=C(CC(=O)O)c2cc(F)ccc2/C1=C\c1ccc([S+]([O-])c2ccc(F)cc2)cc1 (stereo not drawn)', '30 to 50%');

Prompt: Param item = `O=C(O)CC1=C(Cc2ccc(Oc3ccc(F)cc3)cc2)/C(=C/c2cccc(COc3ccccc3)c2)c2ccc(F)cc21` ; retrieve measured inhibition at 10 µM.
Completion: ≥ 50%

Prompt: Request: `O=C(O)CC1=C(Cc2ccc(Oc3ccc(F)cc3)cc2)/C(=C/c2ccc(Cc3ccc(F)cc3)cc2)c2ccc(F)cc21`
Completion: ≥ 50%

Prompt: Request: `COc1cc(COCc2ccc(/C=C3/C(C)=C(CC(=O)O)c4cc(F)ccc43)cc2)ccc1F`
Completion: ≥ 50%

Prompt: Request: `O=C(O)CC1=C(Cc2ccc(C(F)(F)F)cc2)/C(=C/c2cccc(Oc3ccccc3)c2)c2ccc(F)cc21`
Completion: ≥ 50%

Prompt: Request: `CC1=C(CC(=O)O)c2cc(Cl)ccc2/C1=C/c1ccc(Oc2ccc(F)c(F)c2)cc1`
Completion: ≥ 50%

====

# Test system: MDA-MB-231 (breast cancer)
# measurement_protocol: Antiproliferative activity (CCK-8 cell viability), MDA-MB-231
# Format: cell-based
# condition_set: Homo sapiens, Compound concentration: 10 μM, 72 h, read-out: Antiproliferative activity in cancerous cells, MDA-MB-231 (inhibition of cell growth)
experimental_endpoint: inhibition at 10 µM

Prompt: Param item = `CC1=C(CC(=O)O)c2cc(F)ccc2/C1=C\c1ccc(Oc2ccc(Cl)cc2)cc1O` ; retrieve measured inhibition at 10 µM.
Completion: ≥ 50%

Prompt: Request: `CC1=C(CC(=O)O)c2cc(F)ccc2/C1=C\c1ccc(Oc2ccc(Cl)nc2)cc1`
Completion: < 30%

Prompt: Request: `O=C(O)CC1=C(Cc2ccc(Oc3ccc(F)cc3)cc2)/C(=C/c2ccc(N3CCOCC3)cc2)c2ccc(F)cc21`
Completion: ≥ 50%

Prompt: Request: `CCOCc1ccc(/C=C2/C(C)=C(CC(=O)O)c3cc(F)ccc32)cc1`
Completion: < 30%

Prompt: Request: `O=C(O)CC1=C(Cc2ccc(Oc3ccc(F)cc3)cc2)/C(=C/c2cccc(COc3ccccc3)c2)c2ccc(F)cc21`
Completion: ≥ 50%

Prompt: Request: `CC1=C(CC(=O)O)c2cc(Br)ccc2/C1=C\c1ccc(Oc2ccc(Cl)cc2)cc1`
Completion: ≥ 50%

Prompt: Request: `CC1=C(CC(=O)O)c2cc(F)cc(F)c2/C1=C\c1cccc(COc2ccccc2)c1`
Completion: ≥ 50%

Prompt: Request: `CC1=C(CC(=O)NCCN2CCOCC2)c2cc(F)ccc2/C1=C\c1ccc(Oc2ccc(F)cc2)cc1`
Completion: < 30%

Prompt: Request: `CC1=C(CC(=O)O)c2cc(C)ccc2/C1=C\c1ccc(COCc2ccc(Cl)cc2)cc1`
Completion: 30 to 50%

Prompt: Request: O=C(O)CC1=C(C2CCc3ccc(F)cc32)/C(=C/c2ccc(Oc3ccc(F)cc3)cc2)c2ccc(F)cc21 (stereo not drawn)
Completion: ≥ 50%

Prompt: Request: `CC1=C(CCC(=O)O)c2ccccc2/C1=C/c1cccc(Oc2ccccc2)c1`
Completion: < 30%

Prompt: Request: `CC1=C(CC(=O)O)c2cc(F)ccc2/C1=C/c1ccc(CO)cc1`
Completion: ≥ 50%

Prompt: Request: `CC1=C(CC(=O)O)c2cc(I)ccc2/C1=C/c1ccc(COCc2ccc(F)cc2)cc1`
Completion: ≥ 50%

Prompt: Request: `COc1ccc(S(=O)(=O)Cc2ccc(/C=C3\C(C)=C(CC(=O)O)c4cc(F)ccc43)cc2)cc1`
Completion: 30 to 50%

Prompt: Request: `CC(=O)CC(=O)N1CCC(Oc2ccc(/C=C3/C(C)=C(CC(=O)O)c4cc(F)ccc43)cc2)CC1`
Completion: < 30%

====

# System: A431 (epidermoid carcinoma)
# measurement_protocol: Antiproliferative activity (CCK-8 cell viability), A431
# Assay type: cell-based
# condition_set: Homo sapiens, A-431, Compound concentration: 10 μM, 72 h, read-out: Antiproliferative activity in cancerous cells, A431 (inhibition of cell growth)
experimental_endpoint: inhibition at 10 µM

Solved cases below.
INSERT INTO assay_data (given_smiles, assay_result) VALUES
  ('CC1=C(CC(=O)O)c2cc(F)ccc2/C1=C\c1ccc(CN(Cc2ccccn2)c2ccccc2)cc1', '≥ 50%'),
  ('CC1=C(CC(=O)O)c2cc(F)ccc2/C1=C\c1ccc(Sc2nc3ccccc3[nH]2)cc1', '< 30%'),
  ('CC1=C(CC(=O)O)c2cc(F)ccc2/C1=C\c1ccc(CCOc2ccccc2)cc1', '≥ 50%'),
  ('CC1=C(CC(=O)O)c2cc(F)ccc2/C1=C\c1ccc(COCc2ccccc2)cc1', '≥ 50%');

// moving on: another record for inhibition at 10 µM
Prompt: Param item = `CC1=C(CC(=O)O)c2cc(F)ccc2/C1=C\c1ccc(COCc2ccc(F)cc2)cc1` ; retrieve measured inhibition at 10 µM.
Completion: 30 to 50%

====

# Test system: MDA-MB-231 (breast cancer)
# measurement_protocol: Antiproliferative activity (CCK-8 cell viability), MDA-MB-231
# Format: cell-based
# condition_set: Homo sapiens, Compound concentration: 10 μM, 72 h, read-out: Antiproliferative activity in cancerous cells, MDA-MB-231 (inhibition of cell growth)
experimental_endpoint: inhibition at 10 µM

Solved cases below.
INSERT INTO measurements (compound, assay_result) VALUES
  ('CC1=C(CC(=O)O)c2cc(F)ccc2/C1=C\c1ccc(COCc2ccc(C)cc2)cc1 [B102]', '≥ 50%'),
  ('COc1cc(Oc2ccc(F)cc2)ccc1/C=C1/C(C)=C(CC(=O)O)c2cc(F)ccc21 [C51]', '≥ 50%'),
  ('CC1=C(CC(=O)O)c2cc(Cl)ccc2/C1=C\c1ccc(COc2ccc(C(F)(F)F)cc2)cc1 [B58]', '< 30%'),
  ('CCc1ccc2c(c1)C(CC(=O)O)=C(C)/C2=C/c1ccc(COCc2ccc(F)cc2)cc1 [B107]', '30 to 50%'),
  ('O=C(O)CC1=C(Cc2ccc(Oc3ccc(F)cc3)cc2)/C(=C/c2ccc(C(F)(F)F)cc2)c2ccc(F)cc21 [A108]', '≥ 50%'),
  ('CC1=C(CC(=O)O)c2c(F)cc(F)cc2/C1=C\c1cccc(C(F)(F)F)c1 [D6]', '< 30%'),
  ('CC1=C(CC(=O)O)c2cc(F)ccc2/C1=C\c1ccc(COc2ccc(C(F)(F)F)cc2)cc1 [B2]', '≥ 50%');

// moving on: another record for inhibition at 10 µM
Prompt: Param item = CC1=C(CCOC(=O)n2ccnc2)c2cc(F)ccc2/C1=C\c1ccc(Oc2ccc(F)cc2)cc1 [A204] ; retrieve measured inhibition at 10 µM.
Completion: < 30%

Origin of values: patent US20260184663A1
